Field: inhibition. Provide a value for each of the compounds that follow.
Biological target: Caspase-6 (Homo sapiens)
Assay: human caspase-6 inhibitors, primary screen, biochemical, VEID-R110 fluorescence, single point, set 2 (AID 686996);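 also: 0% = median of neutral control wells and 100% = no fluorescence left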
Details: purified caspase-6, Z-VEID-R110 cleavage fluorescence; at 12.5 µM; active compounds read high
Screen size: about 350,000 compounds; about 1,900 (0.54%) were called active. The full list was thinned out, with actives kept by preference.
Lab book: enter the figure in %, no units written.

Using the record for CCCNC(=O)[C@@H]1[C@@H](CO)[C@@H]2Cn3c(ccc(-c4ccccc4F)c3=O)[C@H]1N2CC1CC1 , report its inhibition. 0.74

Consider the compound Cc1ccc(S(=O)(=O)N[C@H]2CC[C@H](CC(=O)O)O[C@H]2CO)cc1 and give its measured inhibition. 3

Look up inhibition for this compound: CNC(=O)COc1ccc(S(=O)(=O)Nc2ccccc2)cc1 0.091

====

Biological target: Caspase-6 (Homo sapiens) (UniProt P55212)
Sequence (P55212 24-179 limits assumed): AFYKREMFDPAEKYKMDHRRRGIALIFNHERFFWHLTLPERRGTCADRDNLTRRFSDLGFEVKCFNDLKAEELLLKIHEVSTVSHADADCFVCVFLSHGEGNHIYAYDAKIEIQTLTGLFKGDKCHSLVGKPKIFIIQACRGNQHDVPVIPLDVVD
Sequence (P55212 194-293 limits assumed): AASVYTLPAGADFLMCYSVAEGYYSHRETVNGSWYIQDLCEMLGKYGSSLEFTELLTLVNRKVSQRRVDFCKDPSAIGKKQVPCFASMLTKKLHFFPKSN
Experiment: human caspase-6 inhibitors, primary screen, biochemical, VEID-R110 fluorescence, single point, set 2 (AID 686996);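 also: 0% = median of neutral control wells and 100% = no fluorescence left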
Details: purified caspase-6, Z-VEID-R110 cleavage fluorescence; at 12.5 µM; active compounds read high
Among all 350,000 compounds or so, about 1,900 (0.54%) were called active. The list comes from a sample in which actives are over-represented; it also holds close analogues and randomly drawn compounds.
Kindly state inhibition for each of the entries shown.
Please state the figure in %; there is no need to write the unit.

Give Caspase-6 (Homo sapiens) (UniProt P55212) inhibition for CC(C)NC(=O)N(C)C[C@@H]1Oc2ccc(NS(=O)(=O)c3cn(C)cn3)cc2C(=O)N([C@@H](C)CO)C[C@@H]1C 0.64

Give recorded inhibition with Caspase-6 (Homo sapiens) (UniProt P55212) for the following compound: CC(C(=O)Nc1ccc(O)c(C(=O)O)c1)N1C(=O)/C(=C/c2cccs2)SC1=S (centres undefined) 27.5

Entry CCCN1[C@H](C(=O)N2CCCCC2)[C@@H](CO)[C@@H]2Cn3c(ccc(-c4ccccc4F)c3=O)[C@@H]21 , system Caspase-6 (Homo sapiens) (UniProt P55212): what inhibition was measured? 1.71

What is its inhibition for Caspase-6 (Homo sapiens) (UniProt P55212)? Entry: CCN(CC)CCCC(C)n1c2nc(=O)[nH]c(=O)c-2nc2cc(Cl)ccc21 (centres undefined) 81.9

Request: inhibition, test system Caspase-6 (Homo sapiens) (UniProt P55212), entry Cc1noc(C)c1NC(=O)N(C)C[C@H]1Oc2ccc(N(C)C)cc2CC(=O)N([C@H](C)CO)C[C@H]1C -3.82

Lab note: need inhibition for O=S(=O)(Nc1ccccc1Cl)c1cccc2nsnc12 on Caspase-6 (Homo sapiens) (UniProt P55212), anyone have it? 51.3

Fill in the recorded inhibition for this compound, with Caspase-6 (Homo sapiens) (UniProt P55212) as test system: COc1ccc(NS(=O)(=O)c2cccc3nsnc23)cc1Cl -0.203

// lookup inhibition | system=Caspase-6 (Homo sapiens) (UniProt P55212) | key= Oc1c(Cl)cc(Cl)c(Cl)c1Cc1c(O)c(Cl)cc(Cl)c1Cl 45.1

Field: inhibition (Caspase-6 (Homo sapiens) (UniProt P55212)). Entry: O=C(C[C@@H]1CC[C@@H](NS(=O)(=O)c2ccc(F)cc2)[C@@H](CO)O1)NCCc1ccncc1 3.03

GET /values?readout=inhibition&system=Caspase-6 (Homo sapiens) (UniProt P55212)&item= CCOc1ccc(OCC)c(NC(=O)CCS(=O)(=O)c2ccc(C)cc2)c1 0.288

Enter reported inhibition observed with Caspase-6 (Homo sapiens) (UniProt P55212) for O=C(O)CCn1c(O)c(C=C2N=c3ccccc3=N2)sc1=S 35.5

Give inhibition (Caspase-6 (Homo sapiens) (UniProt P55212)) of the following compound: COc1ccccc1NC(=O)N1C[C@H](O)COC[C@H]2O[C@H](CC(=O)NCCc3ccccc3)CC[C@@H]21 1.79

Enter reported inhibition observed with Caspase-6 (Homo sapiens) (UniProt P55212) for C[C@@H]1CCCCO[C@@H](CN(C)C(=O)Nc2ccc(C(F)(F)F)cc2)[C@H](C)CN([C@H](C)CO)C(=O)c2cc(NC(=O)c3ccccc3)ccc2O1 -0.72

Lookup: inhibition / Caspase-6 (Homo sapiens) (UniProt P55212) / Cc1cc2nc3c(=O)[nH]c(=O)nc-3n(C[C@H](O)[C@H](O)[C@H](O)CO)c2cc1C -54.4
